Target: endogenously expressed human MSR1 on PMA-treated THP-1 cells (human) (UniProt P21757)
Sequence (P21757 whole entry): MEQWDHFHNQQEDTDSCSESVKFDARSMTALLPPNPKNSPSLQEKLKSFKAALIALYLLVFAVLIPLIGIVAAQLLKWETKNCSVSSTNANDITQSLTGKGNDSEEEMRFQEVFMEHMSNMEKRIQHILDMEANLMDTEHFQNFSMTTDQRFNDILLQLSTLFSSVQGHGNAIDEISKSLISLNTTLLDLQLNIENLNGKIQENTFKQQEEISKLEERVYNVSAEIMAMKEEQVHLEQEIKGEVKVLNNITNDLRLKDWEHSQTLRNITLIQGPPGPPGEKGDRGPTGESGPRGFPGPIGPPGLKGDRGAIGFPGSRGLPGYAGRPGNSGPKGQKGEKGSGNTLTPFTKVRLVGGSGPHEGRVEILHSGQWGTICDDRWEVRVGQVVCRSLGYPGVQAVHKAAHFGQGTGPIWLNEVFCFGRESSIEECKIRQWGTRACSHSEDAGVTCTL
Test: confocal imaging, differentiated THP-1 cells, Alexa 488 secondary
Catalogue of Total Binding at 37° C. (RFU) values
Lab book: enter the figure in RFU, no units written.

Previously resolved entries follow.
binder: H1H27754P-N297Q (antibody, human IgG1, V domains shown) VH: EVQLVESGGGLVQPGGSLRLSCAASGFTFRTYAMTWVRQAPGKGLDWVSAITGDGGNTYYADSVKGRFTISRDNSKNTLYLQMNSLRAEDTAIYYCAKDQRFSFALYYFDYWGQGTLVTVSS VL: DIQMTQSPSSVSASVGDRVTITCRASQGISSWLAWYQQKPGNAPKLLIYAAFSLQSGVPSRFSGSGSGTDFTLTISSLQPEDFATYYCQQANNFPWTFGQGTKVEIKR
Total Binding at 37° C. (RFU): 7.16e+06
//
binder: H1H27739P-N297Q (antibody, human IgG1, V domains shown) VH: EVQLVESGGGLVQPGGSLRLSCTASGFTFSSYAMSWVRQAPGKGLEWVSAISGTGSSTYFTDSVKGRFAISRDNSKNTLYLQMNSLRAEDTAVYYCAKDGEWLSTVTLFDYWGQGTLVTVSS VL: EIVMTQSPATLSVSPGERATLSCRASQSVSSNLAWYQQKPGQAPRLLIYGASTRATGIPARFSGSGSGTDFTLTISSLQSEDFALYYCQQYFIWPPHPTFGPGTKVDIKR
Total Binding at 37° C. (RFU): 5.61e+06
//
binder: H1H21227N-N297Q (antibody, human IgG1, V domains shown) VH: QVQLVQSGAEVKKPGASVKVSCKVSGYTLTELSIHWVRQVPGKGLEWMGGFDPEEGETIFAQEFRDRVTLTEDTSPDTAYMELSSLKSEDAAVYYCTTPRYCNNGICYDYWGQGTLVTVSS VL: DIQMTQSPSSLSASVGDRVTITCRASQSISNYLNWYQQKPGKAPKLLIYTASSLQSGVPSRFSGSGSGTDFTLTISSLQTEDFATYYCQQSYSNFPITFGQGTRLEIKR
Total Binding at 37° C. (RFU): 4.11e+06
//
binder: H1H27747P-N297Q (antibody, human IgG1, V domains shown) VH: QVQLVESGGAVVQPGRSLRLSCAASGFTFSYYGMHWVRQAPGKGLEWVAVISYDGSKKYYADSVKGRFTISRDNSKNTLYLQMNSLRAEDTAVYYCAKDLTVDFYYGMDVWGQGTTVTVSS VL: DIQMTQSPSSVSASVGDRVTITCRASQGISSWLAWYQQKPGKAPKLLIYATSSLQSGAPSRFSGSGSGTDFTLTISSLQPEDFATYFCQQANSFPYTFGQGTKLEIKR
Total Binding at 37° C. (RFU): 5.92e+06

# evaluate next
Request: Specify Total Binding at 37° C. (RFU) for H1H27729P-N297Q (antibody, human IgG1, V domains shown) VH: QVQLVESGGGLVKPGGSLRLSCAASGFIFSDYYMSWIRQAPGKGLEWVSYISSSGTTIYGDSVKGRFTMSRDNAKNSLYLQMNSLRAEDTAVYYCARNYALFDYWGQGTLVTVSS VL: DIQMTQSPSSLSASVGDRVTITCQASQDISKYLNWYQQKPGKAPKLLIYYTSNLETGVPSRFSGSGSGTDFTFTISSLQPEDIATYYCHQSDYLPFTFGPGTKVDIKR and stop.
Response: 6.61e+06
